- test.protocol: Effect of food study: plasma pharmacokinetics fasted vs high-fat breakfast
- Format: in vivo, humans
- test.context: male, human, plasma, oral, 100 mg, 100 mg eplerenone capsule; High Fat Breakfast; 72.0 hours after dosing
value.kind: concentration at 72 h

I would be grateful if you could share the reported concentration at 72 h for COC(=O)C1CC2=CC(=O)CCC2(C)C23OC2CC2(C)C(CC[C@@]24CCC(=O)O4)C13 (stereo partly shown) [eplerenone] .
0 ng/mL

###

- test.protocol: Single dose study: plasma pharmacokinetics of eplerenone, open lactone ring form, spironolactone
- test.context: male, human, plasma, po, 10 mg
value.kind: concentration at 0.5 h (ng/mL)
Report only the number, with the unit ng/mL understood.

Which measured concentration at 0.5 h value corresponds to COC(=O)C1CC2=CC(=O)CCC2(C)C23OC2CC2(C)C(CC[C@@]24CCC(=O)O4)C13 (stereo partly shown) ?
130

###

- test.protocol: ADME study of [14C]eplerenone oral solution: plasma, whole blood, saliva pharmacokinetics
- Type: in vivo, humans
- test.context: male, human, plasma; 100 mg oral solution of [14C]eplerenone; 96.0 hours after dosing
- Description: An open-label, single dose study was employed to evaluate the absorption, distribution, metabolism and elimination profile of a single 100 mg dose of an oral solution of eplerenone. The study employed eight healthy male humans. […] Plasma, saliva, breath, urine and fecal samples were collected at predetermined intervals and analyzed for sample radioactivity and the concentration of eplerenone and its open lactone ring form. […]
value.kind: concentration at 96 h (ng/mL)
Please reply with the bare figure in ng/mL and do not write the unit itself.

Given the compound COC(=O)C1CC2=CC(=O)CCC2(C)C23OC2CC2(C)C(CC[C@@]24CCC(=O)O4)C13 (stereo partly shown) [eplerenone] , what is its reported concentration at 96 h?
0

###

- test.protocol: Single dose study: plasma pharmacokinetics of eplerenone, open lactone ring form, spironolactone
- test.context: male, human, plasma, po, 50 mg
value.kind: half-life

Form field: reported half-life of COC(=O)C1CC2=CC(=O)CCC2(C)C23OC2CC2(C)C(CC[C@@]24CCC(=O)O4)C13 (stereo partly shown)
174 min

Recorded values, source patent US6410054B1.
